target: human m3 muscarinic receptor (Homo sapiens, UniProt P20309); construct: expressed in transfected cells; host or cells: CHO (Chinese Hamster Ovarian) cells, crude membrane fraction; test: Affinity for human muscarinic receptors ([3H]-NMS binding, CHO cell membranes); conditions: qualitative statement
Sequence (P20309 whole entry): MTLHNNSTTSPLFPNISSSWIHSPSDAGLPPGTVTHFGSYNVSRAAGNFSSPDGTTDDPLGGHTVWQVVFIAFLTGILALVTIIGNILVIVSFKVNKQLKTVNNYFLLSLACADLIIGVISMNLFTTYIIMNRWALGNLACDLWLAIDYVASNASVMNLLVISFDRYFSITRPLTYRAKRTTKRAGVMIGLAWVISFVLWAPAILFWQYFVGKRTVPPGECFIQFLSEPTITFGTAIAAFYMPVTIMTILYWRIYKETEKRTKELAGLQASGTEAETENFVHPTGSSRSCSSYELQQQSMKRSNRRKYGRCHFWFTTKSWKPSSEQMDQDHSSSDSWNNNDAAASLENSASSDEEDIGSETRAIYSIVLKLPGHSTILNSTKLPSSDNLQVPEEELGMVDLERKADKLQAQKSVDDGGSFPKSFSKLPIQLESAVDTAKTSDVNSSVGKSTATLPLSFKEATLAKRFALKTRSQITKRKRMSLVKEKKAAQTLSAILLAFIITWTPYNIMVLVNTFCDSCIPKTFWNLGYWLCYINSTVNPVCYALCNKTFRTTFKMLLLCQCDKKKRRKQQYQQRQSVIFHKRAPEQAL
value type: Dual high affinities: m3 receptor part

- compound: "Cc1c(NC2CC2)nc(C2CC2)nc1N1CCCCC1C (racemic)"
  experimental system: "human m3 muscarinic receptor (Homo sapiens, UniProt P20309)"
  reported: "high affinities"
- compound: "Cc1c(N2CCCCCC2)nc(C2CC2)nc1N1CC(O)C1"
  experimental system: "human m3 muscarinic receptor (Homo sapiens, UniProt P20309)"
  reported: "high affinities"
- compound: "Cc1c(NC2CC2)nc(C2CC2)nc1N1CC2CCC(C2)C1"
  experimental system: "human m3 muscarinic receptor (Homo sapiens, UniProt P20309)"
  reported: "high affinities"
- compound: "Cc1c(N2CCCCCC2)nc(C2CC2)nc1N1CC(C)C1"
  experimental system: "human m3 muscarinic receptor (Homo sapiens, UniProt P20309)"
  reported: "high affinities"
- compound: "Cc1c(NC2CC2)nc(C2CCC2)nc1N1CCCCCC1"
  experimental system: "human m3 muscarinic receptor (Homo sapiens, UniProt P20309)"
  reported: "high affinities"

QUERY: Could you share which Dual high affinities: m3 receptor part value was measured for `Cc1c(NC2CC2)nc(C2CC2)nc1N1CCSCC1` ?
RESULT: high affinities
